Tested on: Nakaseomyces glabratus
Experiment: Tested in vitro for the minimum inhibitory concentration (MIC) against Candida glabrata ATCC 90030
Assay type: functional
Here the recorded MIC is given for each entry.
Measured quantity: MIC

[[record]]
molecule = "OC(Cn1cncn1)(Cn1cncn1)c1ccc(F)cc1F [FLUCONAZOLE]"
value = "> 4 mg/L"

[[record]]
molecule = "CC(C)C1=CC2CC3(C=O)[C@@H]4CC[C@@H](C)[C@H]4CC2(/C=N/OC2CCCCC2)C13C(=O)O (stereo not given in full)"
value = "0.125 mg/L"

[[record]]
molecule = "CC(C)C1=CC2CC3(C=O)[C@@H]4CC[C@@H](C)[C@H]4CC2(CN(C)C2CCCCC2)C13C(=O)O (stereo not given in full)"
value = "8 mg/L"

[[record]]
molecule = "CC(C)C1=CC2CC3(C=O)[C@@H]4CC[C@@H](C)[C@H]4CC2(CON=C2CCCCC2)C13C(=O)O (stereo not given in full)"
value = "0.063 mg/L"

[[record]]
molecule = "CC(C)C1=CC2CC3(C=O)[C@@H]4CC[C@@H](C)[C@H]4CC2(C(=O)OC2CCCCC2)C13C(=O)O (stereo not given in full)"
value = "0.5 mg/L"

[[record]]
molecule = "CC(C)C1=CC2CC3(C=O)[C@@H]4CC[C@@H](C)[C@H]4CC2(COC2CCCCC2)C13C(=O)O (stereo not given in full)"
value = "≤ 0.063 mg/L"

[[record]]
molecule = "CC(C)C1=CC2CC3(C=O)[C@@H]4CC[C@@H](C)[C@H]4CC2(CSC2CCCCC2)C13C(=O)O (stereo not given in full)"
value = "0.031 mg/L"

[[record]]
molecule = "C/C=C/C=C\\C(=O)O[C@H]1[C@H](O)[C@H](OCC23C[C@@H]4[C@H](C)CC[C@H]4C4(C=O)CC2C=C(C(C)C)C34C(=O)O)O[C@H](C)[C@H]1OC (stereo not given in full)"
value = "> 4 mg/L"

[[record]]
molecule = "CC(C)C1=CC2CC3(C=O)[C@@H]4CC[C@@H](C)[C@H]4CC2(C(=O)NC2CCCCC2)C13C(=O)O (stereo not given in full)"
value = "0.5 mg/L"

[[record]]
molecule = "CCC(C)n1ncn(-c2ccc(N3CCN(c4ccc(OC[C@H]5CO[C@](Cn6cncn6)(c6ccc(Cl)cc6Cl)O5)cc4)CC3)cc2)c1=O (stereo not given in full) [ITRACONAZOLE]"
value = "1 mg/L"

